Biological target: VDR (Homo sapiens, UniProt P11473)
Sequence (P11473 whole entry): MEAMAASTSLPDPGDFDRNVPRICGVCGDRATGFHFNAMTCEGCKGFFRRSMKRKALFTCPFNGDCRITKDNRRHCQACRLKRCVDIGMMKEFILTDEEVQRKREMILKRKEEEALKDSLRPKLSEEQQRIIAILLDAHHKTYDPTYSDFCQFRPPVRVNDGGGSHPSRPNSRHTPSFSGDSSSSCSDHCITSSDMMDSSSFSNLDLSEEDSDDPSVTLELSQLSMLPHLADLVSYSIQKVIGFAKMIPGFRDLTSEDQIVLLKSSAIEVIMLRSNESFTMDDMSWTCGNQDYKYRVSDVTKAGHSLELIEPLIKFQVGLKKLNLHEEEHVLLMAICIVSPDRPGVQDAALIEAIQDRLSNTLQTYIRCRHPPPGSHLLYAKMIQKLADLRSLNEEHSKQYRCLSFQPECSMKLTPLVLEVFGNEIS
Assay: Lentiviral VDRE-luciferase transcriptional reporter assay
Format: cell-based
Conditions: read-out: VDRE activation (EC50, nM) Jurkat; Jurkat cells, 24 h; NS: no significance
Metric name: EC50

                                   molecule  value_reported
0  C=C1CC[C@H](O)C/C1=C/C=C1\CCC[C@@]2(C)[C@H]1CC[C@@H]2[C@@](C)(O)C[C@@H](O)CC(C)C [17b, 20S,23S-dihydroxyvitamin D3]       > 1000 nM

* * *

Biological target: VDR (Homo sapiens, UniProt P11473)
Assay: Lentiviral VDRE-luciferase transcriptional reporter assay
Format: cell-based
Conditions: read-out: VDRE activation (EC50, nM) HaCaT; HaCaT cells, 24 h; NS: no significance
Metric name: EC50

                                   compound  value_reported
0  C=C1CC[C@H](O)C/C1=C/C=C1\CCC[C@@]2(C)[C@H]1CC[C@@H]2[C@@](C)(O)C[C@@H](O)CC(C)C [17b, 20S,23S-dihydroxyvitamin D3]       > 1000 nM
